Recorded half-life by entry
- protocol summary: Stability of peptides in simulated intestinal fluid (pH 7.5)
- Type: in vitro ADME
- measurement setup: simulated gi fluid, pH 7.5
Where a SMILES comes first, the peptide text is derived from it. [ ]: non-standard residue; d: D form. ξ: configuration not given here. αMePhe(2,6-F2) = C[C@](N)(Cc1c(F)cccc1F)C(=O)O; ξαMePhe(2,6-F2) = CC(N)(Cc1c(F)cccc1F)C(=O)O; αMePhe(2-F) = C[C@](N)(Cc1ccccc1F)C(=O)O; ξαMe(hhPhe) = CC(N)(CCCc1ccccc1)C(=O)O; ξαMePhe(2-F) = CC(N)(Cc1ccccc1F)C(=O)O; ξαMeW = CC(N)(Cc1c[nH]c2ccccc12)C(=O)O; hArg = N=C(N)NCCCC[C@H](N)C(=O)O; Cit = NC(=O)NCCC[C@H](N)C(=O)O; ξαMeNle = CCCCC(C)(N)C(=O)O; Nle = CCCC[C@H](N)C(=O)O; Orn = NCCC[C@H](N)C(=O)O; Ac5c = NC1(C(=O)O)CCCC1; Aib = CC(C)(N)C(=O)O
Field: numeric (min). Do not append units.

q: Which half-life is listed for CCCCC(C)(NC(=O)[C@H](CC(C)C)NC(=O)[C@H](CCC(N)=O)NC(=O)[C@@H](NC(=O)[C@H](CCC(=O)O)NC(=O)C(C)(C)NC(=O)[C@@H](NC(=O)C(C)(C)N)C(C)C)[C@@H](C)CC)C(=O)N[C@@H](Cc1c[nH]cn1)C(=O)N[C@@H](CCC(N)=O)C(=O)N[C@@H](CCCCNC(=N)N)C(=O)N[C@@H](C)C(=O)N[C@@H](CCCCNC(=N)N)C(=O)NC(C)(Cc1c[nH]c2ccccc12)C(=O)NC(C)(CCCc1ccccc1)C(N)=O (stereo partly drawn) [Seq. ID. 949] (H-[Aib]V[Aib]EIQL[ξαMeNle]HQ[hArg]A[hArg][ξαMeW][ξαMe(hhPhe)]-NH2) ?
a: 30

q: Similarly, CCCC[C@H](NC(=O)C(C)(Cc1ccccc1F)NC(=O)[C@H](CCC(N)=O)NC(=O)[C@@H](NC(=O)[C@H](CCC(=O)O)NC(=O)C(C)(C)NC(=O)[C@@H](NC(=O)C(C)(C)N)C(C)C)[C@@H](C)CC)C(=O)N[C@@H](Cc1c[nH]cn1)C(=O)N[C@@H](CCC(N)=O)C(=O)N[C@@H](CCCN)C(=O)NC(C)(C)C(=O)N[C@@H](CCCNC(N)=O)C(=O)NC(C)(Cc1c(F)cccc1F)C(N)=O (stereo partly drawn) [Seq. ID. 290] (H-[Aib]V[Aib]EIQ[ξαMePhe(2-F)][Nle]HQ[Orn][Aib][Cit][ξαMePhe(2,6-F2)]-NH2) ?
a: 30

q: Similarly, CCCC[C@H](NC(=O)[C@](C)(Cc1c(F)cccc1F)NC(=O)[C@H](CCC(N)=O)NC(=O)[C@@H](NC(=O)[C@H](CCC(=O)O)NC(=O)C(C)(C)NC(=O)[C@@H](NC(=O)C1(N)CCCC1)C(C)C)[C@@H](C)CC)C(=O)N[C@@H](Cc1c[nH]cn1)C(=O)N[C@@H](CCC(N)=O)C(=O)N[C@@H](CCCCNC(=N)N)C(=O)NC(C)(C)C(=O)N[C@@H](CCCCN)C(=O)N[C@@](C)(Cc1ccccc1F)C(N)=O [Seq. ID. 85] (H-[Ac5c]V[Aib]EIQ[αMePhe(2,6-F2)][Nle]HQ[hArg][Aib]K[αMePhe(2-F)]-NH2) ?
a: 30
